These measurements were taken from PubChem BioAssay AID2417.

Assay: High Content Assay for Compounds that inhibit the Assembly of the Perinucleolar Compartment;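 note: plate controls were DMSO wells for no effect and camptothecin positive control wells for full effect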
Settings: PC3M PTB-GFP, PNC prevalence imaging, 16 h; at 10 µM
Out of some 140,000 compounds screened, about 4,300 (3.1%) were called active. Inconclusive results (about 21%) are left out.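 Rule for the calls: active = readout at or below -70, meaning at least 70% loss of cells showing the perinucleolar compartment, a nuclear body marking cancer cells; inconclusive = readout between -30 and a set limit; inactive = the rest.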 The sample as a whole holds a higher share of actives than the screen did.
Possible outcomes: class 1 for active, class 0 for inactive

molecule	group.label
CN(CC(=O)Nc1ccc(N2CCOCC2)cc1)CC(=O)Nc1ccccc1[N+](=O)[O-]	class 1
CC1=C(C(=O)Nc2ccccc2)C(c2cccs2)C(C#N)=C(SCC#N)N1 (centres undefined)	class 1
CCOC(=O)NN1C(=O)c2ccccc2NC1c1ccccc1O (centres undefined)	class 0
Cc1cc(=O)oc2cc(OCC3CC(c4ccccc4Cl)=NO3)ccc12 (centres undefined)	class 1
O=C(c1ccc(CSc2ccccc2)cc1)N1CCCCCC1	class 0
CCCCC(=O)Nc1ccc(C(=O)NCCCn2ccnc2)cc1	class 0
Cc1ccc(CCC(=O)Nc2ncc(Cc3cc(Cl)ccc3Cl)s2)o1	class 1
COc1ccc(C(=O)CN(C(=O)c2ccc(Cl)cc2)N2C(=O)c3ccccc3C2=O)cc1	class 0
Cc1cnc(NC(=O)CSc2c(Cl)cccc2Cl)s1	class 0
Cc1cnc(C(=O)OCC(=O)Nc2ccc(Cl)cc2Cl)cn1	class 0
CCN1CN(Cc2ccccc2)CNC1=S	class 0
CCCCOC(=O)Nc1nccs1	class 0
O=C(O)CCC(=O)Nc1ccc(N2CCOCC2)cc1	class 0
CC(C)OCCCNC(=O)c1cc(Sc2ccc(F)cc2)nc2ccccc12	class 0
Cc1ccc(Cc2cnc(N)s2)o1	class 0
Cc1nn(-c2ccccc2)c(-n2cccc2)c1C(=O)O	class 0
O=S(=O)(NCCc1ccncc1)c1ccccc1	class 0
O=C(NCCCn1ccnc1)Nc1ccc(Cl)cc1Cl	class 1
Cc1ccccc1N1CCN(CCCOc2ccc3c(C)cc(=O)oc3c2)CC1	class 0
Cc1cnc(NC(=O)CSc2nnc(-c3ccc(Cl)cc3Cl)n2N)s1	class 1
O=C1OC(c2ccc(Cl)cc2)=N/C1=C\c1cccnc1	class 0
Cc1ccc2c(Cl)c(C(=O)NCCCn3ccnc3)sc2c1	class 0
Cc1cc(/C=C2\SC(=Nc3ccc(N4CCOCC4)cc3)N(C)C2=O)c(C)n1-c1cccnc1	class 0
CCCCNS(=O)(=O)c1ccc2nc(SCC(=O)Nc3cc(C)cc(C)c3)[nH]c2c1	class 0
